Molecular target: SMS1 (Homo sapiens, UniProt Q86VZ5)
Construct: expressed in transfected cells; host or cells: ZS/SMS1 cells (sonicated lysate)
Sequence (Q86VZ5 whole entry, species assumed): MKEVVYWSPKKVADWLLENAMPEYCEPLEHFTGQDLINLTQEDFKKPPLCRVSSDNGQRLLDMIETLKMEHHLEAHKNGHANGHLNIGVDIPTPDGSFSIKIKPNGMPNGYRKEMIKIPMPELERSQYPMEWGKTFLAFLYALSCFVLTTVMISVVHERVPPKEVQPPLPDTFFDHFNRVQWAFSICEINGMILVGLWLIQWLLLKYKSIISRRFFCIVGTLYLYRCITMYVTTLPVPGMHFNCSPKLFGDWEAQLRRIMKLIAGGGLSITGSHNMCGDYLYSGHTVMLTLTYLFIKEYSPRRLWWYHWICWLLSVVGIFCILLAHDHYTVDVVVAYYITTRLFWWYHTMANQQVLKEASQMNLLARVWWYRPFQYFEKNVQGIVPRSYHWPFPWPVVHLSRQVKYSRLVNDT
Assay: SMS assay, cell lysate with fluorescent substrate C6-NBD-Cer (SMS1)
Assay type: biochemical
Details: ZS/SMS1 cell lysate, C6-NBD-ceramide, 3 h at 37 °C, HPLC; read-out: SMS Assay (SMS1) IC50
observed-property: pIC50
API: returns pIC50 as number; meaning -log10 of concentration in mol/L.

Solved entries:
molecule="CCCCCCCCCCCCCCCc1cccc(O)c1C(=O)O [Compound 9, ginkgolic acid, reference compound]" observed_property=pIC50 observed=5.70
molecule=Cc1cc2c(c(O)c1C(=O)O)C=C1[C@]3(C)CCCC(C)(C)[C@H]3CC[C@]1(C)O2 observed_property=pIC50 observed=5.05
molecule="CCCCCC/C=C\\CCCCCCCc1cccc(O)c1C(=O)O [Compound 8, ginkgolic acid, reference compound]" observed_property=pIC50 observed=5.82
molecule="Cc1cc2c(c(O)c1C(=O)O)CC1[C@]3(C)CCCC(C)(C)[C@H]3CC[C@]1(C)O2 (single isomer, unassigned; (-)) [Compound 7, (−) Hongoquercin A]" observed_property=pIC50 observed=5.40

Now turn to the next molecule.
State, in one line, measured pIC50 of COc1c2c(cc(C)c1C(=O)O)O[C@@](C)(CC/C=C(\C)CCC=C(C)C)C=C2
4.77

###

Test system: sphingomyelin synthase
Assay: SMS activity, isozyme not specified (abstract value; fractions of Rhododendron dauricum extract)
Format: biochemical
Conditions: isozyme not stated, read-out: IC50, inhibition of sphingomyelin synthase activity
observed-property: IC50
Write down the value, and be sure its unit follows.

State, in one line, measured IC50 of CC(C)=CCC/C(C)=C/CC[C@@]1(C)C=Cc2c(cc(C)c(C(=O)O)c2O)O1
4 µM
